Kindly state hCRHR1 Luciferase Reporter Assay IC50 for each of the entries shown.
Target: T1, corticotropin-releasing hormone (CRH) peptide (human and mouse (same sequence), not fully specified)
T1 peptide: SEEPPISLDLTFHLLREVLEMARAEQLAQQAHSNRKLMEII
Assay: cell-based or functional assay
One number for each entry, in pM.

QUERY: Supply recorded hCRHR1 Luciferase Reporter Assay IC50 for PR302341-26 (antibody, human IgG1, kappa, V domains shown) VH: QVQLVQSGAEVKKPGASVKVSCKASGYTFTDYFMKWVRQAPGQGLEWMGVINPNNGDIFYNQKFKGRVTMTVDKSISTAYMELSRLRSDDTAVYYCARGTDRALFAYWGQGTLVTVSS VL: DVVMTQTPLSSPVTLGQPASISCRSGQSIVHSDGNTYLEWYQQRPGQPPRLLIYKVSNRFSGVPDRFSGSGAGTDFTLKISRVEAEDLGVYYCFQGSHIPWTFGGGTKVEIKR here.
RESULT: 273

Further cases:
QUERY: Supply recorded hCRHR1 Luciferase Reporter Assay IC50 for PR302341-10 (antibody, human IgG1, kappa, V domains shown) VH: QVQLVQSGAEVKKPGASVKVSCKASGYTFTDYFMKWVRQAPGQGLEWMGVINPNNGDIFYNQKFKGRVTMTVDKSTSTAYMELSSLRSEDTAVYYCARGTDRALFAYWGQGTLVTVSS VL: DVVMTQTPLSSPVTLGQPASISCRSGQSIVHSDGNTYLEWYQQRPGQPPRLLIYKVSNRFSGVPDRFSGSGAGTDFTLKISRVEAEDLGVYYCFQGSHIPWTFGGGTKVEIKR here.
RESULT: 110
